tested on: platelets (platelet rich plasma); experiment: Inhibition of platelet aggregation, thrombin receptor activating peptide (TRAP) as agonist; type: cell-based; conditions: compound 30 μM, TRAP 12 μM, human PRP, read-out: % Reduction in Aggregation TRAP (12 μM)
The threshold is inclusive: inhibition at 30 µM of exactly 90% counts as true; values below receive false.

As a guide, the following entries are already answered.
Cc1ncc(CNc2ccc(C(=N)N)cc2)c(CNCCCCCC(=O)O)c1OCc1ccc(C(=N)N)cc1 [Compound 54]: false
Cc1ncc(CNc2ccc(-c3ccc(C(=N)N)cc3)cc2F)c(CO)c1OCc1ccc(C(=N)N)cc1 [Compound 63]: true
Cc1ncc(CNc2ccc(-c3ccc(C(=N)N)cc3)cc2)c(CO)c1OCc1ccc(C(=N)N)cc1 [Compound 6]: false
Cc1ncc(CNc2ccc(-c3ccc(C(=N)N)cc3)cc2)c(C)c1OCc1cccc(C(=N)N)c1 [Compound 29]: false

Kindly review the next compound as well.
Dear colleague, could you confirm whether Cc1ncc(CNc2ccc(-c3ccc(C(=N)N)cc3)cc2)c(C)c1OCc1ccc(C(=N)N)cc1 [Compound 25] has inhibition at 30 µM at or above 90%?
true
